Conditions: buffer; pH 7.4; 200.0 µM
experimental.readout: solubility kinetic

In [3]: df
Out[3]:
                                    compound  experimental_readout  recorded_measurement
 0             Cc1ccc(/C=N/NC(=O)c2cccnc2)s1    solubility kinetic          > 36.8 µg/mL
 1                CC(=O)Nc1nnc(S(N)(=O)=O)s1    solubility kinetic          > 33.3 µg/mL
 2             Cc1ccc(C)c(NC(=S)Nc2cccnc2)c1    solubility kinetic          > 38.6 µg/mL
 3  O=C1NC(=O)C(c2ccc(Cl)cc2)N1 (stereo unspecified)    solubility kinetic          > 31.6 µg/mL
 4           Nc1ccc2nc(SCC(=O)N3CCOCC3)sc2c1    solubility kinetic          > 46.4 µg/mL
 5  CS(=O)(=O)N1CCCC(C(=O)Nc2c(F)cccc2F)C1 (stereo unspecified)    solubility kinetic          > 47.8 µg/mL
 6  O=C(N/C(=C\c1ccco1)C(=O)N1CCCC(CO)C1)c1ccccc1 (stereo unspecified)    solubility kinetic          > 53.2 µg/mL
 7  Cc1ccc(C2C(C(=O)c3ccco3)=C(O)C(=O)N2c2ncccn2)cc1 (stereo unspecified)    solubility kinetic          > 54.2 µg/mL
 8           Fc1ccc(OCc2cc(-c3ccccc3)no2)cc1    solubility kinetic           < 0.6 µg/mL
 9           O=C(NC(=S)NCc1ccccc1)c1ccccc1Br    solubility kinetic           < 0.4 µg/mL
10  CCOc1cc2c(cc1/C=C/c1noc(C)c1[N+](=O)[O-])OC(C)C2 (stereo unspecified)    solubility kinetic           < 0.4 µg/mL

Values from PubChem BioAssay AID1996
